Target System: human recombinant dopamine D3 receptor (Homo sapiens (Human), UniProt P35462)
Sequence (P35462 whole entry): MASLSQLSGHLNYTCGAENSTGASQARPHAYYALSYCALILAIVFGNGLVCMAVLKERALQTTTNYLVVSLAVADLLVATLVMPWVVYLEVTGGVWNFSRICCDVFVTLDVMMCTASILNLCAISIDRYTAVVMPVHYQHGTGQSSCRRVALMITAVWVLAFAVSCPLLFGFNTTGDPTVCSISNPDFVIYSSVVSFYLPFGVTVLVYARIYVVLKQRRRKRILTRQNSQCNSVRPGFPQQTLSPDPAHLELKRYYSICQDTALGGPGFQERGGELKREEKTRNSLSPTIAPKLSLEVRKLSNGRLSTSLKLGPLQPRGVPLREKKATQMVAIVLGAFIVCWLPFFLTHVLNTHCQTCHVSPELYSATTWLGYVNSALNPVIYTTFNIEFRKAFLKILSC
Experiment Description: Test of binding inhibition for dopamine D3 receptor ([3H]-Methylspiperone SPA)
Test Conditions: Jump-In HEK cell membranes, 2 nM [3H]-Methylspiperone, 120 min at 25° C.; read-out: hD3_Ki
Parameter: pKi
Quick note: pKi values are minus log10 of concentrations in mol/L.

Past entries and their recorded results:
- Compound: "Cc1ncc(/C=C/C(=O)N[C@H]2CC[C@](F)(CCN3CCc4nc(OCC(F)(F)F)sc4CC3)CC2)cn1"
  Target System: "human recombinant dopamine D3 receptor (Homo sapiens (Human), UniProt P35462)"
  pKi: 9.57
- Compound: "Cn1ncc(CC(=O)N[C@H]2CC[C@](F)(CCN3CCc4nc(OCC(F)(F)C(F)F)sc4CC3)CC2)n1"
  Target System: "human recombinant dopamine D3 receptor (Homo sapiens (Human), UniProt P35462)"
  pKi: 10.09
- Compound: "Cc1nc(CC(=O)N[C@H]2CC[C@](F)(CCN3CCc4nc(OCC(F)F)sc4CC3)CC2)no1"
  Target System: "human recombinant dopamine D3 receptor (Homo sapiens (Human), UniProt P35462)"
  pKi: 9.00
- Compound: "C[C@@H](Oc1ccc2c(n1)CCN(CC[C@H]1CC[C@H](NC(=O)COc3cnn(C)c3)CC1)CC2)C(F)(F)F"
  Target System: "human recombinant dopamine D3 receptor (Homo sapiens (Human), UniProt P35462)"
  pKi: 9.82
- Compound: "Cc1ncc(CC(=O)NC2CC3CCC(C2)N3CCN2CCc3sc(OCC(F)(F)F)nc3C2)s1 (single isomer, unassigned)"
  Target System: "human recombinant dopamine D3 receptor (Homo sapiens (Human), UniProt P35462)"
  pKi: 9.77

Query (compound): Cc1cnc(OCC(=O)N[C@H]2CC[C@](F)(CCN3CCc4ccc(OCC(F)F)nc4CC3)CC2)cn1 ; field requested: pKi
9.49

CC(Oc1nc2c(s1)CCN(CC[C@H]1CC[C@H](NC(=O)c3cccc4nn(C)cc34)CC1)CC2)C(F)F (single isomer, unassigned) [Example I-119] ?
9.96

O=C(N[C@H]1CC[C@](F)(CCN2CCc3nc(OCC(F)F)sc3CC2)CC1)c1cccnc1C(F)F ?
9.08

Cn1ncc(CC(=O)N[C@H]2CC[C@H](CCN3CCc4nc(OC5CC(F)(F)C5)sc4CC3)CC2)n1 ?
9.96

Cn1ncc(CC(=O)N[C@H]2CC[C@](F)(CCN3CCc4nc(OCC(C)(F)F)sc4CC3)CC2)n1 ?
9.31

Cc1nnc(CC(=O)N[C@H]2CC[C@H](CCN3CCc4nc(O[C@H](C)C(F)(F)F)sc4CC3)CC2)s1 ?
9.21

Cn1ncc(CC(=O)NC23CCC(CCN4CCc5nc(OCC(F)(F)F)sc5CC4)(CC2)CC3)n1 ?
9.80

Cc1cnc(OCC(=O)N[C@H]2CC[C@](F)(CCN3CCc4nc(OCC(F)(F)F)sc4CC3)CC2)cn1 ?
9.77

C[C@@H](Oc1nc2c(s1)CCN(CC[C@H]1CC[C@H](NC(=O)COc3cnn(C)c3)CC1)CC2)C(F)(F)F ?
9.08
